- PROTOCOL SUMMARY: Pharmacokinetics of Nab-2 in monkeys
- Assay type: in vivo
- ASSAY CONTEXT: male, blood; Nab-2 IV 10 mg/kg, cynomolgus monkey; time 0.5 hr; label = analyte
- Procedure: The day of the initial dose administration was designated Study Day 1, with subsequent days consecutively numbered. Days on study prior to the initial dose administration were consecutively numbered with the final day of acclimation referenced as day −1. […] All animals were dosed once weekly, on days 1, 8 and 15. […] Clinical observations were performed twice daily and body weights were recorded weekly throughout the study.
RECORDED ENDPOINT: concentration at 0.5 hr

- COMPOUND: "CC(=O)O[C@@]12CO[C@@H]1C[C@H](O)[C@@]1(C)C(=O)[C@H](O)C3=C(C)[C@@H](OC(=O)[C@H](O)[C@@H](NC(=O)OC(C)(C)C)c4ccccc4)C[C@@](O)([C@@H](OC(=O)c4ccccc4)C12)C3(C)C (some centres unmarked) [Docetaxel, docetaxel, reference compound]"
  concentration at 0.5 hr: "63.4 ng/mL"

# next compound below
Would you mind telling me what concentration at 0.5 hr value was observed for CCCCCC(=O)O[C@@H](C(=O)O[C@H]1C[C@@]2(O)[C@@H](OC(=O)c3ccccc3)C3[C@](C)(C(=O)[C@H](O)C(=C1C)C2(C)C)[C@@H](O)C[C@H]1OC[C@@]31OC(C)=O)[C@@H](NC(=O)OC(C)(C)C)c1ccccc1 (some centres unmarked) ?
936 ng/mL

* * *

- PROTOCOL SUMMARY: Pharmacokinetics of Nab-2 in monkeys
- Assay type: in vivo
- ASSAY CONTEXT: male, cynomolgus monkey, blood, iv, Nab-2 IV 5-20 mg/kg, read-out: volume of distribution Vz
RECORDED ENDPOINT: Vd

# get_value(readout='Vd', item= CCCCCC(=O)O[C@@H](C(=O)O[C@H]1C[C@@]2(O)[C@@H](OC(=O)c3ccccc3)C3[C@](C)(C(=O)[C@H](O)C(=C1C)C2(C)C)[C@@H](O)C[C@H]1OC[C@@]31OC(C)=O)[C@@H](NC(=O)OC(C)(C)C)c1ccccc1 (stereo partly shown) )
7 to 11 L/kg

* * *

Recorded Tmax, one value per entry.
- PROTOCOL SUMMARY: Pharmacokinetics of Nab-2 in monkeys
- Format: in vivo
- ASSAY CONTEXT: male, blood; Nab-2 IV 5 mg/kg, cynomolgus monkey; label = analyte
Respond with the figure and its unit, in that order.

- MOLECULE: "CCCCCC(=O)O[C@@H](C(=O)O[C@H]1C[C@@]2(O)[C@@H](OC(=O)c3ccccc3)C3[C@](C)(C(=O)[C@H](O)C(=C1C)C2(C)C)[C@@H](O)C[C@H]1OC[C@@]31OC(C)=O)[C@@H](NC(=O)OC(C)(C)C)c1ccccc1 (some centres unmarked)"
  Tmax: "4.98 min"

Here is another molecule to look at.
Any idea what its Tmax is? The molecule is CC(=O)O[C@@]12CO[C@@H]1C[C@H](O)[C@@]1(C)C(=O)[C@H](O)C3=C(C)[C@@H](OC(=O)[C@H](O)[C@@H](NC(=O)OC(C)(C)C)c4ccccc4)C[C@@](O)([C@@H](OC(=O)c4ccccc4)C12)C3(C)C (some centres unmarked) [Docetaxel, docetaxel, reference compound]
15 min

* * *

- PROTOCOL SUMMARY: Pharmacokinetics of Nab-2 in monkeys
- Assay type: in vivo
- ASSAY CONTEXT: male, blood; Nab-2 IV 5 mg/kg, cynomolgus monkey; label = analyte
RECORDED ENDPOINT: Cmax (ng/mL)
The reply should contain only the number, in ng/mL.

- COMPOUND: "CCCCCC(=O)O[C@@H](C(=O)O[C@H]1C[C@@]2(O)[C@@H](OC(=O)c3ccccc3)C3[C@](C)(C(=O)[C@H](O)C(=C1C)C2(C)C)[C@@H](O)C[C@H]1OC[C@@]31OC(C)=O)[C@@H](NC(=O)OC(C)(C)C)c1ccccc1 (some centres unmarked) [Compound 2, 2′-Hexanoyl Docetaxel]"
  UOM: "ng/mL"
  OBSERVED: 1070

// moving on: another record for Cmax
Suppose we examine the compound CC(=O)O[C@@]12CO[C@@H]1C[C@H](O)[C@@]1(C)C(=O)[C@H](O)C3=C(C)[C@@H](OC(=O)[C@H](O)[C@@H](NC(=O)OC(C)(C)C)c4ccccc4)C[C@@](O)([C@@H](OC(=O)c4ccccc4)C12)C3(C)C (some centres unmarked) [Docetaxel, docetaxel, reference compound] ; what Cmax value has been reported?
41

* * *

- PROTOCOL SUMMARY: Pharmacokinetics of Nab-2 in monkeys
- Type: in vivo
- ASSAY CONTEXT: male, cynomolgus monkey, blood, iv, 20 mg/kg, Nab-2 IV 20 mg/kg, read-out: Vz
RECORDED ENDPOINT: Vd (L/kg)
Report the figure in L/kg without appending any unit label.

For CCCCCC(=O)O[C@@H](C(=O)O[C@H]1C[C@@]2(O)[C@@H](OC(=O)c3ccccc3)C3[C@](C)(C(=O)[C@H](O)C(=C1C)C2(C)C)[C@@H](O)C[C@H]1OC[C@@]31OC(C)=O)[C@@H](NC(=O)OC(C)(C)C)c1ccccc1 (stereo partly shown) [Compound 2, 2′-Hexanoyl Docetaxel] , what is its reported Vd?
11.2

* * *

- PROTOCOL SUMMARY: Pharmacokinetics of Nab-2 in monkeys
- Format: in vivo
- ASSAY CONTEXT: male, blood; Nab-2 IV 10 mg/kg, cynomolgus monkey; time 8 hr; label = analyte
- Description: The day of the initial dose administration was designated Study Day 1, with subsequent days consecutively numbered. Days on study prior to the initial dose administration were consecutively numbered with the final day of acclimation referenced as day −1. […] All animals were dosed once weekly, on days 1, 8 and 15. […] Clinical observations were performed twice daily and body weights were recorded weekly throughout the study.
RECORDED ENDPOINT: concentration at 8 hr (ng/mL)
Numeric answer only, unit ng/mL assumed.

- COMPOUND: "CCCCCC(=O)O[C@@H](C(=O)O[C@H]1C[C@@]2(O)[C@@H](OC(=O)c3ccccc3)C3[C@](C)(C(=O)[C@H](O)C(=C1C)C2(C)C)[C@@H](O)C[C@H]1OC[C@@]31OC(C)=O)[C@@H](NC(=O)OC(C)(C)C)c1ccccc1 (some centres unmarked) [Compound 2, 2′-Hexanoyl Docetaxel]"
  RECORDED ENDPOINT: "concentration at 8 hr"
  UOM: "ng/mL"
  OBSERVED: 202

Now examine the next entry.
Query: concentration at 8 hr; subject: CC(=O)O[C@@]12CO[C@@H]1C[C@H](O)[C@@]1(C)C(=O)[C@H](O)C3=C(C)[C@@H](OC(=O)[C@H](O)[C@@H](NC(=O)OC(C)(C)C)c4ccccc4)C[C@@](O)([C@@H](OC(=O)c4ccccc4)C12)C3(C)C (some centres unmarked) [Docetaxel, docetaxel, reference compound]
0

* * *

- PROTOCOL SUMMARY: Pharmacokinetics of Nab-2 in monkeys
- Format: in vivo
- ASSAY CONTEXT: male, blood; Nab-2 IV 10 mg/kg, cynomolgus monkey; time 0.083 hr; label = analyte
In this section, each of the compounds is paired with its reported concentration at […].
Quick note: give the figure in ng/mL, leave out the unit.

- COMPOUND: "CC(=O)O[C@@]12CO[C@@H]1C[C@H](O)[C@@]1(C)C(=O)[C@H](O)C3=C(C)[C@@H](OC(=O)[C@H](O)[C@@H](NC(=O)OC(C)(C)C)c4ccccc4)C[C@@](O)([C@@H](OC(=O)c4ccccc4)C12)C3(C)C (some centres unmarked) [Docetaxel, docetaxel, reference compound]"
  OBSERVED: 99.4

Query compound follows.
Which concentration at […] is reported for this compound? CCCCCC(=O)O[C@@H](C(=O)O[C@H]1C[C@@]2(O)[C@@H](OC(=O)c3ccccc3)C3[C@](C)(C(=O)[C@H](O)C(=C1C)C2(C)C)[C@@H](O)C[C@H]1OC[C@@]31OC(C)=O)[C@@H](NC(=O)OC(C)(C)C)c1ccccc1 (some centres unmarked) [Compound 2, 2′-Hexanoyl Docetaxel]
1550

* * *

# Cmax annotations
- PROTOCOL SUMMARY: Pharmacokinetics of Nab-2 in monkeys
- Type: in vivo
- ASSAY CONTEXT: male, blood; Nab-2 IV 20 mg/kg, cynomolgus monkey; label = analyte
Report only the number, with the unit ng/mL understood.

- COMPOUND: "CC(=O)O[C@@]12CO[C@@H]1C[C@H](O)[C@@]1(C)C(=O)[C@H](O)C3=C(C)[C@@H](OC(=O)[C@H](O)[C@@H](NC(=O)OC(C)(C)C)c4ccccc4)C[C@@](O)([C@@H](OC(=O)c4ccccc4)C12)C3(C)C (some centres unmarked) [Docetaxel, docetaxel, reference compound]"
  UOM: "ng/mL"
  OBSERVED: 382

Consider the additional compound presented here.
What measured Cmax goes with CCCCCC(=O)O[C@@H](C(=O)O[C@H]1C[C@@]2(O)[C@@H](OC(=O)c3ccccc3)C3[C@](C)(C(=O)[C@H](O)C(=C1C)C2(C)C)[C@@H](O)C[C@H]1OC[C@@]31OC(C)=O)[C@@H](NC(=O)OC(C)(C)C)c1ccccc1 (some centres unmarked) [Compound 2, 2′-Hexanoyl Docetaxel] ?
2620
